A collection of binders and their measured ELISA signal
# assayed.system: T1, (GlcNAc2)2-18-mer glycopeptide, unconjugated (human)
# T1 construct: Used in ELISA without KLH; also called 18-mer(chitobiose)2[C-T22-V38]; 18mer-chitobiose peptide
# T1 peptide: Ac-CTRN(GlcNAc2)GTQLQN(GlcNAc2)FTLDRSSV-NH2
# method: ELISA during fusion screen, dilution 400, column 18S
* marks the point of attachment. GlcNAc2 = N-linked chitobiose, CC(=O)N[C@@H]1[C@@H](O)[C@H](O[C@@H]2O[C@H](CO)[C@@H](O)[C@H](O)[C@H]2NC(C)=O)[C@@H](CO)O[C@H]1*
Answer field: number only, no words.

binder | ELISA signal
7B12.B3 (antibody, V domains shown, Mouse monoclonal from a hybridoma; also called MUC16 Glycosylation Antibody 7B12) VH: QVTLKESGPGILQPSQTLSLTCSFSGFSLSTVGMGVGWSRQPSGKGLEWLAHIWWDDEDKYYNPALKSRLTISKDTSKNQVFLKIANVDTADSATYYCTRIGTAQATDALDYWGQGTSVTVSS VL: DIVMTQAAPSVSVTPGESVSISCRSSKSLRKSNGNTYLYWFLQRPGQSPQRLIYYMSNLASGVPDRFSGRGSGTDFTLRISRVEAEDVGVYYCMQSLEYPLTFGGGTKLKIK | 0.92
16C5.C1 (antibody, V domains shown, Mouse monoclonal from a hybridoma) VH: QVTLKESGPGILQPSQTLSLTCSFSGFSLNTLGMGVGWIRQPSGKGLEWLAHIWWDDDKYYYPALKSRLTISRDTSKNQVFLKIANVDTADTATYYCARIGTAQATDALDYWGQGTSVTVSS VL: ELDMTQTPPSLSASVGETVRIRCLASEDIYSGISWYQQKPGKPPTLLIYGASNLESGVPPRFSGSGSGTDYTLTIGGVQAEDAATYYCLGGYSYSSTLTFGAGTNVEIK | 0.36
18C6.D12 (antibody, V domains shown, Mouse monoclonal from a hybridoma; also called MUC16 Glycosylation Antibody 18C6) VH: QVTLKESGPGILQPSQTLSLTCSFSGFSLSTVGMGVGWSRQPSGKGLEWLAHIWWDDEDKYYNPALKSRLTISKDTSKNQVFLKIANVDTADTATYYCTRIGTAQATDALDYWGQGTSVTVSS VL: DIVMTQAAPSVPVTPGESVSISCRSSKSLLHSNGNTYLYWFLQRPGQSPQRLIYYMSNLASGVPDRFSGRGSGTDFTLRISRVEAEDVGVYYCMQSLEYPLTFGGGTKLEIK | 0.64

# ---- query binder ----
# input // returns reported ELISA signal for input 19C11.H6 (antibody, V domains shown, Mouse monoclonal from a hybridoma; Used as 89Zr-DFO-labelled antibody in the internalization assay; also called MUC16 Glycosylation Antibody 19C11) VH: QVNLKESGPGKLQPSQTLSLTCSFSGFSLSTLGMGVGWIRQSSGKGLEWLAHIWWDDDKYYNPALKSRLTISRATSKNQVFLKIVNVGTADTATYYCARIGTAQATDALDYWGQGTSVTVSS VL: DIVMTQAAPSIPVTPGESVSISCRSSKSLLHSNGNTYLYWFLQRPGQSPQRLIYYMSNLASGVPDRFSGRGSGTDFTLKISRVEAGDVGVYYCMQGLEHPLTFGGGTKLEIK
# output 0.47
